# test.description: NCI Yeast Anticancer Drug Screen. Data for the mec2-1 strain (AID 157)
# cond: S. cerevisiae mec2-1 strain, at 50.0 µM, hits give high values
This is part of a sample that, as a whole, favours compounds with a hit. Of some 79,000 tested, about 15% had one in any assay.
endpoint.label: growth inhibition (%)
Numbers only, in %.

COC(=O)c1cc(-c2ccc(F)cc2)[nH]c(=O)c1C#N	-10.4
CCC(c1ccc(OC)cc1)C(C(C)=O)c1ccc(OC)cc1 (stereo not given)	-13

Respectfully, I request growth inhibition for each entry included below.
1. CC(C)=CC(C)(O)c1nc2ccccc2s1 (stereo not given)
2. NC(Cc1ccc(CP(=O)(O)O)cc1)C(=O)O (stereo not given)
3. CCCCCCCCCCCC(=O)Nc1cc(Cl)c(OC)cc1OC
4. O=C(O)C[C@H]1CCCCC12CCOC2=O (stereo not given in full)
5. c1csc(C2N3CCN(CC3)C(c3cccs3)N3CCN2CC3)c1 (stereo not given)
6. N#C/C(=C/n1c(=S)sc2ccccc21)c1nc2ccccc2s1
7. CC(O)c1ccc(C(O)/C(=N\NC(=O)c2ccncc2)c2nc3ccc([N+](=O)[O-])cc3[nH]c2=O)cc1 (stereo not given)

Result:
1. 21.7
2. -61.3
3. 6.75
4. 6.7
5. -16.7
6. 14.7
7. -10.2

State the recorded growth inhibition for every item in the following list.
1. CCCS(=O)(=O)CCC(=O)c1cccs1
2. COC1OC(COCc2ccccc2)C(OCc2ccccc2)C(OC)C1O (stereo not given)

Result:
[-12.1, -3]

Each of the following entries comes with a recorded value; kindly state growth inhibition for each.
1. NCc1ccc2ccc3ccccc3c2c1
2. CSCCC(NC(=O)NS(=O)(=O)c1ccc(C)cc1)C(=O)O (stereo not given)
3. CC(=O)c1ccccc1NC(=O)C(=O)C(C(=O)c1ccccc1-c1ccccc1)C1OC(=O)c2ccccc21 (stereo not given)
4. CCCN(CCC)NC(=O)c1ccc(N=NN(C)C)cc1
5. COc1ccc(NS(=O)c2ccccc2OC)cc1 (stereo not given)

Result:
1: -0.95; 2: -16.1; 3: 2.95; 4: 32.8; 5: 4.5

Give growth inhibition for each of the items listed below.
1. CCCCn1cnc2c(=S)nc[nH]c21
2. O=C(CCN1C(=O)c2ccccc2C1=O)NCS(=O)(=O)O
3. COC1OC(OC2OC=C3C(=O)OC4CC(C)C2C34)C(O)C(O)C1O (stereo not given)
4. Cc1cc(C)c(C(=O)c2ccccc2C)c(C)c1
5. CSc1cc(C)n2nnnc2n1
6. C=C(CC[C@@H](C)[C@H]1CC[C@@]2(C)C3=C(CC[C@]12C)[C@@]1(C)CC[C@H](O)[C@@H](C)C1CC3)C(C)C (stereo not given in full)
7. CC(=NCCN(CCN=C(C)c1c(O)cc(C)oc1=O)CCN=C(C)c1c(O)cc(C)oc1=O)c1c(O)cc(C)oc1=O
8. CCC(C)C(N)C1=NC(C(=O)NC(CC(C)C)C(=O)NC(CCC(=O)O)C(=O)NC(C(=O)NC2CCCCNC(=O)C(CC(N)=O)NC(=O)C(CC(=O)O)NC(=O)C(Cc3cnc[nH]3)NC(=O)C(Cc3ccccc3)NC(=O)C(C(C)CC)NC(=O)C(CCCN)NC2=O)C(C)CC)CS1 (stereo not given)

Result:
-1.9
-4.7
-34.2
-1
-11.9
2.8
-4.3
-24.9

Hey, quick one: what's growth inhibition for each of these?
1. COc1ccc(/C=N/SC(c2ccccc2)(c2ccccc2)c2ccccc2)cc1
2. O=c1[nH]c(=O)n(C2CC(O)C(CO)O2)cc1NN=NCCc1ccccc1 (stereo not given)
3. COc1ccc(-c2cc3cc(Cl)cc(Cl)c3oc2=O)cc1OC
4. COC(=O)C(CCc1ccc([N+](=O)[O-])cc1)(CCc1ccc([N+](=O)[O-])cc1)C(=O)OC
5. COc1c2occc2c(OC)c2c(=O)c(S(=O)(=O)NC(=O)Nc3ccc(Cl)cc3)coc12

Result:
6
0.75
-8.6
3.25
-11.8

Answer for every listed entry: what is its growth inhibition? The entries follow.
1. [Co+2].[NH-]C(Cc1ccc(O)cc1)C(=O)O.[NH-]C(Cc1ccc(O)cc1)C(=O)O (stereo not given)
2. O=C(Nc1ccc(F)cc1)Nc1cccc(C(=O)O)c1
3. CCOc1ccccc1NC(=O)CC1Sc2ccccc2NC1=O (stereo not given)
4. CCOC(=O)Nc1ccccc1F
5. Cn1c(=O)c2c(no[n+]2[O-])c2ccccc21

Result:
1. 10.2
2. 7.9
3. -14.7
4. -16.1
5. 15.7

For each of the compounds below, state growth inhibition.
1. FC(F)(F)c1cc(C2SCc3nc4ccccc4n32)cc(C(F)(F)F)c1 (stereo not given)
2. O=C(O)CCC(=O)Nc1cc([N+](=O)[O-])ccc1OCc1ccccc1
3. COC(=O)c1n[nH]n(Cc2cccs2)c1=O (tested in a mixture with another compound)

Result:
[-23, -7.55, 13.9]

Give measured growth inhibition for every item shown.
1. CN(C)CC1CCCCCCCCCC(CN(C)C)C1=O (stereo not given)
2. Cc1ccc(Cc2nn(C)c(=O)n2-n2cccc2)cc1
3. C[N+]1(CC(O)c2ccccc2)CCCC1 (stereo not given)
4. C[n+]1ccc2c(Br)cccc2c1
5. CCCOC(=O)c1ccc(C(C)C)cc1
6. CN(C)/C=N/NC(=O)C(O)c1ccccc1 (stereo not given)
7. O=C(O)C(CO)Nc1ccccc1 (stereo not given)
8. COC(=O)C1C(=O)C2OC1C1OC(C)(C)OC21 (stereo not given)

Result:
19.9
-13.7
13.3
-14.9
0.8
2.2
10.4
-12.1
